src = paper PMC7774326

Biological target: 15 soybean lipoxygenase (15-sLOX) (Glycine max, UniProt P08170)
Sequence (P08170 1-839): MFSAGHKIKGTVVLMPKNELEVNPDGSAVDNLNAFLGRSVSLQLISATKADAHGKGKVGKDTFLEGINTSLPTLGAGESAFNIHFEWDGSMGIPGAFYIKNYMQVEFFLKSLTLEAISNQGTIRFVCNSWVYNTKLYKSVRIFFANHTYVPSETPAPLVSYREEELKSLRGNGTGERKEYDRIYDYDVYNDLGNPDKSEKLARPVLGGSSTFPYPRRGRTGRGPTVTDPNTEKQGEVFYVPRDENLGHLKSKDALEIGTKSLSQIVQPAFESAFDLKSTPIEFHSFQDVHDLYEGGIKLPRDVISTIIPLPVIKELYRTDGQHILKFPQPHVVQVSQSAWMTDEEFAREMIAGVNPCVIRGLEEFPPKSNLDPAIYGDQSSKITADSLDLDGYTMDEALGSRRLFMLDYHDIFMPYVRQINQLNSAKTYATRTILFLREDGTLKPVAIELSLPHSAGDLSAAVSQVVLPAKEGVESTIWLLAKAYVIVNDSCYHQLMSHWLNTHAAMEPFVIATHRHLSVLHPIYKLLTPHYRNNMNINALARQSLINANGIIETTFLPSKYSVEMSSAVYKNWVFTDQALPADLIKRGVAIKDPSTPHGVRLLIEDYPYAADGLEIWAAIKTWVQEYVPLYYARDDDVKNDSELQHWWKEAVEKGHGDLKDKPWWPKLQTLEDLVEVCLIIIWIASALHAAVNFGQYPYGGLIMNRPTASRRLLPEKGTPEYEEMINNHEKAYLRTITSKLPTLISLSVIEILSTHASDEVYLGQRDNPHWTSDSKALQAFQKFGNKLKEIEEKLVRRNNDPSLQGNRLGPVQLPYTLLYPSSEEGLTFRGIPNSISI
REPORTED PROPERTY: IC50 (µM)
Write the value in µM as a bare number.

- CCCC/C=C\CCCCCCCCCc1cccc(O)c1O [Compound 2, 3-[(10Z)-pentadec-10′-en-1-yl]-catechol]: 54.8

Answer with the recorded IC50 of CCCCCCCCCCCCCCCc1cccc(O)c1O [Compound 3, 3-n-pentadecylcatechol] only.
55.3
